target: CD33 (Sino Biological, Cat #12238-H08H) (UniProt P20138 18-259); test: BLI, IgG captured on anti-human Fc sensor, 50 nM CD33, pH 7.4 vs pH 5.4
Sequence (P20138 18-259 limits assumed): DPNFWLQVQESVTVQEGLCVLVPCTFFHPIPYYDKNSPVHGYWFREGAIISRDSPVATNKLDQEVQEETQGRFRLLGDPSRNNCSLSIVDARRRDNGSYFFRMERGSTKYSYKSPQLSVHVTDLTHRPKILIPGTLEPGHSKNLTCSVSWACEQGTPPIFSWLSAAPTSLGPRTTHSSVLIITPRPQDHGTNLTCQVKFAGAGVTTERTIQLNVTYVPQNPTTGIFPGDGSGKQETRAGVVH
observation-type: binding result

MYT2668 (antibody, V domains shown, IgG; vadastuximab VL variant #16 (L54H)) VH: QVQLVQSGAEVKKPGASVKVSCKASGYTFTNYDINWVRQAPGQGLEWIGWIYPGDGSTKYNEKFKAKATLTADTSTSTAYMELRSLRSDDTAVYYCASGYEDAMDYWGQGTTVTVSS VL: DIQMTQSPSSLSASVGDRVTINCKASQDINSYLSWFQQKPGKAPKTLIYRANRHVDGVPSRFSGSGSGQDYTLTISSLQPEDFATYYCLQYDEFPLTFGGGTKVEIK | binds
MYT1607 (antibody, V domains shown, IgG; gemtuzumab VL variant #18 (S56H)) VH: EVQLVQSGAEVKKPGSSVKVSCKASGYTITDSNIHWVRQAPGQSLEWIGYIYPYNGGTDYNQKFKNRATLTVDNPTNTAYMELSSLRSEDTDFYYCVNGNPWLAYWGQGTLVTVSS VL: DIQLTQSPSTLSASVGDRVTITCRASESLDNYGIRFLTWFQQKPGKAPKLLMYAAHNQGSGVPSRFSGSGSGTEFTLTISSLQPDDFATYYCQQTKEVPWSFGQGTKVEVK | binds
MYT2642 (antibody, V domains shown, IgG; IMGN779 VL variant #26 (Q96H)) VH: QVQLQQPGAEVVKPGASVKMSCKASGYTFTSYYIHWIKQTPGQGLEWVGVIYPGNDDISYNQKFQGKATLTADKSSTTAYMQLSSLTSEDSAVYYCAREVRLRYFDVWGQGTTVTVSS VL: EIVLTQSPGSLAVSPGERVTMSCKSSQSVFFSSSQKNYLAWYQQIPGQSPRLLIYWASTRESGVPDRFTGSGSGTDFTLTISSVQPEDLAIYYCHHYLSSRTFGQGTKLEIK | binds

Values from patent US20220324969A1
